Where do these numbers come from? They come from patent US8178506B2.

- System: IGFBP-1
- Test: IGFBP-1 mRNA expression in HepG2 cells
- Format: cell-based, human
- Conditions: Experiment 2, insulin treated: HepG2 cells transfected with oligomeric compound, 1 nM insulin for four hours; UTC + 1 nM insulin = 100
- Description: Approximately 28 hours after transfection, the cells are subjected to serum starvation for a period of 12 to 16 hours, using serum-free growth medium. […] Following insulin treatment (forty-eight hours after transfection), total RNA is harvested from all samples, and the amount of total RNA from each sample is determined using a Ribogreen assay (Invitrogen Corporation, Carlsbad, Calif.). […]
In the oligonucleotide strings, read from the 5' end, every base follows the letter of its sugar. An asterisk marks phosphorothioate; unmarked linkages are phosphodiester. Other units and linkages are bracketed, terminal groups are in braces. A string of capitals states the bases alone. e = 2'-O-(2-methoxyethyl) (MOE); [5mC] = 5-methylcytosine; d = 2'-deoxy (DNA)
Documented IGFBP1 mRNA expression across a set of substances
Output: the number by itself.

# Substance, IGFBP1 mRNA expression
records = [
    ("328423 (antisense e[5mC]*e[5mC]*eA*e[5mC]*eA*dT*dA*dT*dA*d[5mC]*dA*dT*dA*dT*dA*eT*eA*e[5mC]*eG*e[5mC]) [compound 328423]", 69),
    ("328396 (antisense e[5mC]*eT*eG*eG*eT*dT*dG*dG*dG*dT*dA*dT*dG*dA*dG*eA*e[5mC]*eA*eG*eA) [compound 328396]", 128),
    ("328764 (antisense eA*eG*eA*eT*eG*dT*dT*dT*d[5mC]*dT*dG*dG*d[5mC]*d[5mC]*dT*eG*e[5mC]*eG*eA*eG) [compound 328764]", 145),
    ("327950 (antisense eT*e[5mC]*eA*eG*eT*eT*eT*eT*eG*e[5mC]*eA*eT*eA*eG*eA*eT*eT*eT*eG*e[5mC]*eA*e[5mC]*eA) [compound 327950]", 124),
    ("328367 (eA*e[5mC]*eT*eG*eA*dG*dG*dG*d[5mC]*dG*dG*d[5mC]*d[5mC]*d[5mC]*dG*eG*eG*e[5mC]*eA*eG) [compound 328367]", 141),
    ("328774 (antisense eG*e[5mC]*eA*e[5mC]*e[5mC]*d[5mC]*dG*d[5mC]*d[5mC]*dT*d[5mC]*dA*d[5mC]*dA*d[5mC]*eA*e[5mC]*eG*eT*eG) [compound 328774]", 100),
]

Item 327958 (antisense e[5mC]*e[5mC]*eG*eG*e[5mC]*eT*eG*e[5mC]*eA*eA*e[5mC]*eA*e[5mC]*eA*eA*eG*eA*e[5mC]*eA*e[5mC]*eG*eA) [compound 327958] has what recorded IGFBP1 mRNA expression? 149

###

- Test system: Glut4
- Test: Glut4 mRNA expression in adipocytes (real-time PCR)
- Assay type: cell-based, human
- Conditions: differentiating adipocytes transfected with oligomeric compound; Table 75
In the oligonucleotide strings, read from the 5' end, every base follows the letter of its sugar. An asterisk marks phosphorothioate; unmarked linkages are phosphodiester. Other units and linkages are bracketed, terminal groups are in braces. A string of capitals states the bases alone. e = 2'-O-(2-methoxyethyl) (MOE); [5mC] = 5-methylcytosine
Reported property: GLUT4 mRNA

Some substances with recorded GLUT4 mRNA:
# Substance, GLUT4 mRNA
data = [
    ("344617 (GACGGGUGCGAUUUCUGUGUGAGA; all 2'-MOE, all phosphorothioate, methylation of C and T or U not given here) [compound 344617]", "42 percentage of untreated control (UTC)"),
    ("344614 (CCAGCAGCACCUGGGGCAGU; all 2'-MOE, all phosphorothioate, methylation of C and T or U not given here) [compound 344614]", "61 percentage of untreated control (UTC)"),
    ("346920 (AGCAAAAAUGUGCUAGUGCCAAA; all 2'-MOE, all phosphorothioate, methylation of C and T or U not given here) [compound 346920]", "61 percentage of untreated control (UTC)"),
    ("327881 (antisense eA*eA*eA*eA*eG*eA*eG*eA*e[5mC]*e[5mC]*eG*eG*eT*eT*e[5mC]*eA*e[5mC]*eT*eG*eT*eG*eA) [compound 327881]", "97 percentage of untreated control (UTC)"),
    ("346692 (UAAACGGAACCACUAGUGACUUG; all 2'-MOE, all phosphorothioate, methylation of C and T or U not given here) [compound 346692]", "11 percentage of untreated control (UTC)"),
]

Item 328117 (antisense eT*e[5mC]*e[5mC]*eA*e[5mC]*eA*eA*eA*eG*e[5mC]*eT*eG*eA*eA*e[5mC]*eA*eT*eG*eT*e[5mC]*eT) [compound 328117] has what recorded GLUT4 mRNA? 13 percentage of untreated control (UTC)

Item 346686 (CUUCAGUUAUCACAGUACUGUA; all 2'-MOE, all phosphorothioate, methylation of C and T or U not given here) [compound 346686] has what recorded GLUT4 mRNA? 73 percentage of untreated control (UTC)

Item 341798 (antisense GCAUUAUUACUCACGGUACGA; all 2'-MOE, all phosphorothioate, methylation of C and T or U not given here) [compound 341798] has what recorded GLUT4 mRNA? 55 percentage of untreated control (UTC)

Item 327957 (antisense e[5mC]*eA*e[5mC]*eA*eA*eG*eT*eT*e[5mC]*eG*eG*eA*eT*e[5mC]*eT*eA*e[5mC]*eG*eG*eG*eT*eT) [compound 327957] has what recorded GLUT4 mRNA? 11 percentage of untreated control (UTC)

Item 328138 (eG*eA*eG*e[5mC]*eT*eG*e[5mC]*eT*e[5mC]*eA*eG*e[5mC]*eT*eG*eG*e[5mC]*e[5mC]*eA*eT*e[5mC]*eA; anti-miR) [compound 328138] has what recorded GLUT4 mRNA? 52 percentage of untreated control (UTC)

###

- System: adipocytes
- Test: Triglyceride accumulation assay in adipocytes
- Format: cell-based, human
- Conditions: adipocytes, 250 nM oligomeric compound, relative to control (1.0); Table 15
In the oligonucleotide strings, read from the 5' end, every base follows the letter of its sugar. An asterisk marks phosphorothioate; unmarked linkages are phosphodiester. Other units and linkages are bracketed, terminal groups are in braces. A string of capitals states the bases alone. e = 2'-O-(2-methoxyethyl) (MOE); [5mC] = 5-methylcytosine
Reported property: TG (triglyceride accumulation)
Output: the number by itself.

Some substances with recorded TG (triglyceride accumulation):
# Substance, Assay system, TG (triglyceride accumulation)
rows = [
    ("327934 (antisense eG*eG*eT*eA*e[5mC]*eA*eA*eT*e[5mC]*eA*eA*e[5mC]*eG*eG*eT*e[5mC]*eG*eA*eT*eG*eG*eT) [compound 327934]", "adipocytes", 0.99),
    ("327892 (antisense eA*e[5mC]*eT*eT*eT*e[5mC]*eG*eG*eT*eT*eA*eT*e[5mC]*eT*eA*eG*e[5mC]*eT*eT*eT*eA) [compound 327892]", "adipocytes", 0.42),
]

Item 327919 (antisense eG*eA*eA*eA*e[5mC]*e[5mC]*e[5mC]*eA*eG*e[5mC]*eA*eG*eA*e[5mC]*eA*eA*eT*eG*eT*eA*eG*e[5mC]*eT) [compound 327919] has what recorded TG (triglyceride accumulation)? 0.58

Item 327933 (antisense eA*eA*eG*eG*eG*eA*eT*eT*e[5mC]*e[5mC]*eT*eG*eG*eG*eA*eA*eA*eA*e[5mC]*eT*eG*eG*eA*e[5mC]) [compound 327933] has what recorded TG (triglyceride accumulation)? 1.48

Item 327913 (antisense eA*eA*e[5mC]*e[5mC]*eG*eA*eT*eT*eT*e[5mC]*eA*eA*eA*eT*eG*eG*eT*eG*e[5mC]*eT*eA*eG) [compound 327913] has what recorded TG (triglyceride accumulation)? 0.59

Item 327954 (antisense eA*e[5mC]*eA*eA*eA*eG*eT*eT*e[5mC]*eT*eG*eT*eG*eA*eT*eG*e[5mC]*eA*e[5mC]*eT*eG*eA) [compound 327954] has what recorded TG (triglyceride accumulation)? 0.58

Item 327888 (antisense eA*eA*eT*eG*e[5mC]*e[5mC]*e[5mC]*e[5mC]*eT*eA*eA*eA*eA*eA*eT*e[5mC]*e[5mC]*eT*eT*eA*eT) [compound 327888] has what recorded TG (triglyceride accumulation)? 0.98

Item 327890 (antisense eA*eG*e[5mC]*eA*e[5mC]*eA*eA*eA*e[5mC]*eT*eA*e[5mC]*eT*eA*e[5mC]*e[5mC]*eT*e[5mC]*eA) [compound 327890] has what recorded TG (triglyceride accumulation)? 0.92

Item 327876 (antisense eA*eA*e[5mC]*eA*e[5mC]*eT*eG*eA*eT*eT*eT*e[5mC]*eA*eA*eA*eT*eG*eG*eT*eG*e[5mC]*eT*eA) [compound 327876] has what recorded TG (triglyceride accumulation)? 0.47

Item 327880 (antisense eA*e[5mC]*eA*eA*eA*eT*eT*e[5mC]*eG*eG*eT*eT*e[5mC]*eT*eA*e[5mC]*eA*eG*eG*eG*eT*eA) [compound 327880] has what recorded TG (triglyceride accumulation)? 0.52

Item 327901 (antisense eT*eG*eA*eG*e[5mC]*eT*eA*e[5mC]*eA*eG*eT*eG*e[5mC]*eT*eT*e[5mC]*eA*eT*e[5mC]*eT*e[5mC]*eA) [compound 327901] has what recorded TG (triglyceride accumulation)? 0.54

Item 327878 (antisense e[5mC]*eT*eA*eG*eT*eG*eG*eT*e[5mC]*e[5mC]*eT*eA*eA*eA*e[5mC]*eA*eT*eT*eT*e[5mC]*eA*e[5mC]) [compound 327878] has what recorded TG (triglyceride accumulation)? 0.65

Item 327941 (antisense eA*eA*e[5mC]*e[5mC]*e[5mC]*eA*e[5mC]*e[5mC]*eG*eA*e[5mC]*eA*eG*e[5mC]*eA*eA*eT*eG*eA*eA*eT*eG*eT*eT) [compound 327941] has what recorded TG (triglyceride accumulation)? 1.31

Item 327903 (antisense eA*eA*e[5mC]*eT*eA*eT*eA*e[5mC]*eA*eA*e[5mC]*e[5mC]*eT*eA*e[5mC]*eT*eA*e[5mC]*e[5mC]*eT*e[5mC]*eA) [compound 327903] has what recorded TG (triglyceride accumulation)? 1.20

Item 327922 (antisense eT*e[5mC]*eA*eG*eT*eT*eT*eT*eG*e[5mC]*eA*eT*eG*eG*eA*eT*eT*eT*eG*e[5mC]*eA*e[5mC]*eA) [compound 327922] has what recorded TG (triglyceride accumulation)? 1.09
